The measured values listed here are drawn from patent US10787423B2.

- Measured target: rVDAC1-GFP2 / rVDAC1-Rluc in T-REx-293 cells (Rattus norvegicus)
- Construct: The rVDAC1 gene was cloned into BamHI and HindIII sites of the BRET2 plasmids (N2 variants); expressed in transfected cells; host or cells: T-REx-293 cells stably expressing hVDAC1-shRNA (T-REx-pS10)
- Sequence (Q9Z2L0 with tags, fused parts or gaps limits assumed): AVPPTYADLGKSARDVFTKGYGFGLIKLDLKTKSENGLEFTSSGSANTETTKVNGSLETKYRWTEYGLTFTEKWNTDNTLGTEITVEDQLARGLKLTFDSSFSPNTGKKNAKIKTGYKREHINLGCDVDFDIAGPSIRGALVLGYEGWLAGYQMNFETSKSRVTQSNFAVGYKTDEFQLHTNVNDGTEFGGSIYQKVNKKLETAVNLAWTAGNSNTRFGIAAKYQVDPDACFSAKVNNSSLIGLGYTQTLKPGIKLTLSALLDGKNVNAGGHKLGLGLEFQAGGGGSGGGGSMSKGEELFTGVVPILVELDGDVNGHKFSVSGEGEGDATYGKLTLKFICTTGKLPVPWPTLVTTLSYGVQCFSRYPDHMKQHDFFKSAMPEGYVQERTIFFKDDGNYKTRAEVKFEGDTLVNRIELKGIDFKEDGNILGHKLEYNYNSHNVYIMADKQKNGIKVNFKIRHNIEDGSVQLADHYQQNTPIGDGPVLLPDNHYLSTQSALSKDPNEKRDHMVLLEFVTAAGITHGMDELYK
- Method: BRET2 assay of VDAC1 oligomerization induced by apoptosis inducers (Method A)
- Format: cell-based
- Condition: test compound 10 μM, 1 h pre-incubation, STS 1 μM (3 h)
Property label: BRET2, % of inhibition, STS (%)
Supply the numeric figure in %, leaving out any unit text.

Simply: O=C(Nc1ccc(Cl)c([N+](=O)[O-])c1)Nc1nc2ccccc2s1 [NSC 329249] , rVDAC1-GFP2 / rVDAC1-Rluc in T-REx-293 cells (Rattus norvegicus), BRET2, % of inhibition, STS = 12.1

Summary: Clc1ccc(-c2nc(-c3cc4cc(Cl)ccc4o3)cs2)cc1 [NSC 321502] , rVDAC1-GFP2 / rVDAC1-Rluc in T-REx-293 cells (Rattus norvegicus), BRET2, % of inhibition, STS = 22.4

Param item: O=C(Nc1ccc(Nc2ccncc2)cc1)c1ccc(Nc2ccnc3ccc([N+](=O)[O-])cc23)cc1 [NSC 146771] ; param system: rVDAC1-GFP2 / rVDAC1-Rluc in T-REx-293 cells (Rattus norvegicus); output BRET2, % of inhibition, STS: 41.2

Simply: O=C(O)c1ccc(O)c(O)c1 [NSC 16631] , rVDAC1-GFP2 / rVDAC1-Rluc in T-REx-293 cells (Rattus norvegicus), BRET2, % of inhibition, STS = 30.5

Tested on rVDAC1-GFP2 / rVDAC1-Rluc in T-REx-293 cells (Rattus norvegicus): O=C(O)c1cc2ccccc2cc1Nc1ccccc1 [NSC 40275] . Observed BRET2, % of inhibition, STS: 16.8

Noted BRET2, % of inhibition, STS for O=C(Nc1ccc(Br)c2ccccc12)c1ccc2ccccc2c1O [NSC 601359] , tested on rVDAC1-GFP2 / rVDAC1-Rluc in T-REx-293 cells (Rattus norvegicus): 46

The molecule CN1CCN(C(=O)Nc2ccc([N+](=O)[O-])cc2)CC1 [NSC 36815] on rVDAC1-GFP2 / rVDAC1-Rluc in T-REx-293 cells (Rattus norvegicus): BRET2, % of inhibition, STS was 34.5

Test item C=CCNC(=O)c1ccc(OC)cc1 [NSC 404057] ; rVDAC1-GFP2 / rVDAC1-Rluc in T-REx-293 cells (Rattus norvegicus); reported BRET2, % of inhibition, STS was 0

The reported BRET2, % of inhibition, STS value, rVDAC1-GFP2 / rVDAC1-Rluc in T-REx-293 cells (Rattus norvegicus), for O=C(Oc1ccc(NC(=O)c2cc3c(cc2Br)OCO3)cc1)c1ccccc1 [NSC 268487] reads 0

Short answer on rVDAC1-GFP2 / rVDAC1-Rluc in T-REx-293 cells (Rattus norvegicus) for O=C1CN2CCC1C/C2=C\c1ccnc2c(Cl)cccc12 (stereo not shown) [NSC 132868] , BRET2, % of inhibition, STS: 0

The molecule O=C(Nc1ccc(Cl)c(Cl)c1)Nc1ccccc1O [NSC 522131] on rVDAC1-GFP2 / rVDAC1-Rluc in T-REx-293 cells (Rattus norvegicus): BRET2, % of inhibition, STS was 0

BRET2, % of inhibition, STS on rVDAC1-GFP2 / rVDAC1-Rluc in T-REx-293 cells (Rattus norvegicus) for Nc1cc2c3c(cccc3c1)C(=O)N(CCN1CCCC1)C2=O [NSC 308849] is 0

Per the reported rVDAC1-GFP2 / rVDAC1-Rluc in T-REx-293 cells (Rattus norvegicus) data, CCCCC(=O)N1CCCC(C)C1 (stereo not shown) [NSC 191029] has BRET2, % of inhibition, STS of 0

---

- Method: 6-hydroxydopamine-induced cell toxicity, XTT cell viability
- Type: cell-based
- Condition: human; 30 μM 6-hydroxydopamine, 24 h; read-out: decrease in cell viability
Property label: cytotoxicity at 24 h, 30 μM (%)
Return type: number; implicit unit %.

Input NCCc1cc(O)c(O)cc1O [6-hydroxydopamine, reference compound] . Output cytotoxicity at 24 h, 30 μM: 90

---

- Measured target: rVDAC1-GFP2 / rVDAC1-Rluc in T-REx-293 cells (Rattus norvegicus)
- Construct: The rVDAC1 gene was cloned into BamHI and HindIII sites of the BRET2 plasmids (N2 variants); expressed in transfected cells; host or cells: T-REx-293 cells stably expressing hVDAC1-shRNA (T-REx-pS10)
- Method: BRET2 assay of VDAC1 oligomerization induced by apoptosis inducers (Method A)
- Type: cell-based
- Condition: test compound 10 μM, 1 h pre-incubation, selenite 30 μM (3 h)
For each of the compounds below, state its BRET2, % of inhibition, Selenite.

Form: compound = "Nc1nc(N)c(C=Nc2ccc(Br)cc2)c(Nc2ccc(Br)cc2)n1" ; BRET2, % of inhibition, Selenite = 74%

The reported BRET2, % of inhibition, Selenite of the compound "O=C(Nc1cccc([N+](=O)[O-])c1)c1cccc(C(=O)Nc2cccc([N+](=O)[O-])c2)c1" was 32.5%

Note to self: BRET2, % of inhibition, Selenite recorded for "Nc1ccc(C(=O)Oc2ccc([N+](=O)[O-])cc2)cc1" was 1.2%

Looking up "CN(C)c1ccc(N=Nc2cccc3ccoc23)cc1" , I see its BRET2, % of inhibition, Selenite listed as 66.3%

Record "O=C(/C=C/c1ccccc1)NC(=S)Nc1ncccn1" . Reported BRET2, % of inhibition, Selenite: 0%

Consider "O=C(O)c1cc2ccccc2c2cc(Br)ccc12" . Its measured BRET2, % of inhibition, Selenite is 29.8%

// recorded BRET2, % of inhibition, Selenite for "O=C(Nc1ccc(Br)c2ccccc12)c1ccc2ccccc2c1O" : 74.4%

Lab book: BRET2, % of inhibition, Selenite of "O=[N+]([O-])c1ccc(-c2ncc(-c3ccc(Br)cc3)o2)cc1" noted as 26.6%

Memo: "O=C(c1cccnc1)c1cc(-c2ccccn2)c(=O)n2ccccc12" , reported BRET2, % of inhibition, Selenite: 16.3%

# BRET2, % of inhibition, Selenite of "COc1c(NC(C)=O)c2ccccc2c2ccccc12" = 2.1%

Entry "COC(=NC(C)C)NC(C)C" — recorded BRET2, % of inhibition, Selenite = 41.8%

BRET2, % of inhibition, Selenite recorded for this compound, "Clc1ccc(-c2nc(-c3cc4cc(Cl)ccc4o3)cs2)cc1" , is 46.5%

Noted for "Nc1cc2c3c(cccc3c1)C(=O)N(CCN1CCCC1)C2=O" : its BRET2, % of inhibition, Selenite reads 0%

Per the records, this compound ( "O=C(Nc1ccccc1-c1ccccc1)C(=O)Nc1ccccc1-c1ccccc1" ) has BRET2, % of inhibition, Selenite equal to 80.2%

Lab note: "CCN(CC)Cc1cc2[nH]c3c4ccc(Cl)cc4ncc3c2cc1OC" gave BRET2, % of inhibition, Selenite of 52%

Per the record, "NC(=O)c1ccc(Oc2ccc(C(N)=O)cc2)cc1" has BRET2, % of inhibition, Selenite of 54%

Value of measured BRET2, % of inhibition, Selenite for the entry CCCCC(=O)N1CCCC(C)C1 (stereo not drawn) : 36.4%

Record summary for "CCOc1ccc(Nc2c3ccccc3nc3ccccc23)cc1" : reported BRET2, % of inhibition, Selenite = 0%

Consider "Clc1ccc(/C=C/c2nc(Cl)c(-c3ccc(Cl)cc3)c(Cl)n2)cc1" . Its measured BRET2, % of inhibition, Selenite is 90.6%

Record COc1ccc(C2OC3=C(Nc4cc(C)c(C)cc4N3)C2=O)cc1 (stereo not drawn) . Reported BRET2, % of inhibition, Selenite: 46.5%

Note to self: BRET2, % of inhibition, Selenite recorded for "NCc1c(O)ccc2ccccc12" was 38.6%

---

Record form. Attribute: BRET2, % of inhibition, STS. Fill in for each entry.
- Measured target: rVDAC1-GFP2 / rVDAC1-Rluc in T-REx-293 cells (Rattus norvegicus)
- Construct: The rVDAC1 gene was cloned into BamHI and HindIII sites of the BRET2 plasmids (N2 variants); expressed in transfected cells; host or cells: T-REx-293 cells stably expressing hVDAC1-shRNA (T-REx-pS10)
- Method: BRET2 assay of VDAC1 oligomerization induced by apoptosis inducers (Method A)
- Type: cell-based
- Condition: test compound 10 μM, 1 h pre-incubation, STS 1 μM (3 h)
Returns: string containing the number followed by the unit.

The value of BRET2, % of inhibition, STS measured for the molecule CCOC(=O)c1[nH]c(CO)c(C(=O)OCC)c1C [NSC 10768] turned out to be 0%

Memo: CN1[C@@H]2CC[C@H]1CC(OC(c1ccccc1)c1ccccc1)C2.CS(=O)(=O)O (stereo partly shown) [NSC 42199] , reported BRET2, % of inhibition, STS: 31%

Entry COC(=NC(C)C)NC(C)C [NSC 672441] ; BRET2, % of inhibition, STS = 0%

The measured BRET2, % of inhibition, STS associated with CCN1CCc2ccccc2C1 [NSC 28837] reads 0.3%

Notebook: O=C(Nc1cccc([N+](=O)[O-])c1)c1cccc(C(=O)Nc2cccc([N+](=O)[O-])c2)c1 [NSC 204232] , BRET2, % of inhibition, STS read as 0%

Noted for O=C(O)c1cccc2c1C(=O)c1cccc3snc-2c13 [NSC 39938] : its BRET2, % of inhibition, STS reads 0%

Query CC(C)COC(=O)NC1c2ccccc2Oc2ccccc21 [NSC 31069] yields BRET2, % of inhibition, STS of 0%

BRET2, % of inhibition, STS recorded for this molecule, CCN(CC)Cc1cc2[nH]c3c4ccc(Cl)cc4ncc3c2cc1OC [NSC 317605] , is 0.3%

So, c1ccc2c(c1)[nH]c1c3ccccc3sc21 [NSC 605333] ? Its BRET2, % of inhibition, STS was 0%

Quick note, BRET2, % of inhibition, STS for O=P(O)(O)c1cc(-c2ccccc2)oc1-c1ccccc1 [NSC 43344] landed at 23.8%
